assay: Solubility pH 7.4; format: physicochemical; settings: aqueous buffer, Table 1
readout.type: solubility

Some entries whose results are on file:
[[record]]
smiles_repr = "Cn1c(=N)n(-c2ccc(N3CCNCC3)c(C(F)(F)F)c2)c2c3cc(-c4ccc(Cl)cc4)ccc3ncc21"
test_value = "< 1 µg/mL"

[[record]]
smiles_repr = "COc1cccc(-n2c(=N)n(C)c3cnc4ccc(-c5ccc(Cl)cc5)cc4c32)c1"
test_value = "20.8 µg/mL"

[[record]]
smiles_repr = "CCOc1ccc(C#N)cc1-n1c(=N)n(C)c2cnc3ccc(-c4ccc(Cl)cc4)cc3c21"
test_value = "26 µg/mL"

[[record]]
smiles_repr = "CC(=O)N1CCN(c2nc(C)c(-n3c(=N)n(C)c4cnc5ccc(-c6ccc(Cl)cc6)cc5c43)cc2C#N)CC1"
test_value = "> 54 µg/mL"

[[record]]
smiles_repr = "Cc1ccc(C#N)cc1-n1/c(=N/C(=O)OC(C)(C)C)n(C)c2cnc3ccc(-c4ccc(Cl)cc4)cc3c21"
test_value = "< 1 µg/mL"

[[record]]
smiles_repr = "Cc1ccc(C#N)cc1-n1c(=N)n(C)c2cnc3ccc(-c4ncc(Cl)cn4)cc3c21"
test_value = "> 42 µg/mL"

[[record]]
smiles_repr = "COc1ccc(-c2ccc3ncc4c(c3c2)n(-c2cc(C#N)ccc2C)c(=N)n4C)cn1"
test_value = "> 42 µg/mL"

[[record]]
smiles_repr = "Cc1ccc(C#N)cc1-n1c(=N)n(C)c2cnc3ccc(-c4ccc(F)c(F)c4)cc3c21"
test_value = "8.3 µg/mL"


Now take the following compound into account.
// solubility lookup, key: Cc1cc(N2CCC(O)CC2)c(C#N)cc1-n1c(=N)n(C)c2cnc3ccc(-c4ccc(Cl)cc4)cc3c21
< 1 µg/mL

----------
assay: PAMPA permeability; format: in vitro ADME; details: Table 3
readout.type: Papp (×10⁻⁶ cm/s)

Some entries whose results are on file:
[[record]]
smiles_repr = "Cc1ccc(-c2ccc3ncc4c(c3c2)n(-c2cncnc2)c(=N)n4C)cn1"
readout_type = "Papp"
test_value = 136

[[record]]
smiles_repr = "Cc1ccc(-c2ccc3ncc4c(c3c2)n(-c2cncnc2C)c(=N)n4C)cc1"
readout_type = "Papp"
test_value = 1240

[[record]]
smiles_repr = "COc1ccc(-c2ccc3ncc4c(c3c2)n(-c2nccnc2C)c(=N)n4C)cc1OC"
readout_type = "Papp"
test_value = 1240


a: Cc1ccc(-c2ccc3ncc4c(c3c2)n(-c2cncnc2)c(=N)n4C)cc1
b: Cc1ncncc1-n1c(=N)n(C)c2cnc3ccc(-c4cccc(F)c4)cc3c21
c: Cn1c(=N)n(-c2cncnc2)c2c3cc(-c4ccc(Cl)cc4)ccc3ncc21
Reorder: Papp, max to min. Answer format: list of labels, ordered as asked.
b, c, a

A: Cn1c(=N)n(-c2cncnc2)c2c3cc(-c4ccc(F)cc4)ccc3ncc21
B: CC(=O)N1CCN(c2ncc(-n3c(=N)n(C)c4cnc5ccc(-c6ccc(Cl)cc6)cc5c43)cn2)CC1
C: Cc1ncncc1-n1c(=N)n(C)c2cnc3ccc(-c4ccc(Cl)cc4)cc3c21
D: Cn1c(=N)n(-c2cncnc2)c2c3cc(-c4ccc(C(F)(F)F)nc4)ccc3ncc21
E: Cn1c(=N)n(-c2cncnc2)c2c3cc(-c4ccc(N)nc4)ccc3ncc21
List by increasing Papp. Answer format: list of labels, ordered as asked.
E, A, B, D, C
(E: 12.9 ×10⁻⁶ cm/s, A: 26.2 ×10⁻⁶ cm/s, B: 292 ×10⁻⁶ cm/s, D: 541 ×10⁻⁶ cm/s, C: 1290 ×10⁻⁶ cm/s)

a: COc1ccc(-c2ccc3ncc4c(c3c2)n(-c2cncnc2)c(=N)n4C)cc1OC
b: Cc1ncncc1-n1c(=N)n(C)c2cnc3ccc(-c4ccc(F)cc4)cc3c21
I'm curious whether a or b has the smaller Papp number. Which is it? Let me know the label of the one you choose.
a
(a: 510 ×10⁻⁶ cm/s, b: 1180 ×10⁻⁶ cm/s)

----------
experiment: PAMPA permeability; assay type: in vitro ADME; settings: Table 1
readout.type: Papp (×10⁻⁶ cm/s)

Some entries whose results are on file:
[[record]]
smiles_repr = "Cc1cccc(-c2ccc3ncc4c(c3c2)n(-c2cc(C#N)ccc2C)c(=N)n4C)c1"
test_value = 1150

[[record]]
smiles_repr = "Cc1ccc(C#N)cc1-n1c(=N)n(C)c2cnc3ccc(-c4ncc(Cl)cn4)cc3c21"
test_value = 1430

[[record]]
smiles_repr = "Cc1ccc(C#N)cc1-n1c(=N)n(C)c2cnc3ccc(-c4ccccc4)cc3c21"
test_value = 716

[[record]]
smiles_repr = "Cc1cc(N2CCC2)c(C#N)cc1-n1c(=N)n(C)c2cnc3ccc(-c4ccc(Cl)cc4)cc3c21"
test_value = 176

[[record]]
smiles_repr = "Cc1ccc(C#N)cc1-n1/c(=N/C(=O)OC(C)(C)C)n(C)c2cnc3ccc(-c4ccc(Cl)cc4)cc3c21"
test_value = 128


a: COc1ccc(C#N)cc1-n1c(=N)n(C)c2cnc3ccc(-c4ccc(Cl)cc4)cc3c21
b: COC(=O)/N=c1\n(C)c2cnc3ccc(-c4ccc(Cl)cc4)cc3c2n1-c1cc(C#N)ccc1C
c: COc1cc(-c2ccc3ncc4c(c3c2)n(-c2cc(C#N)ccc2C)c(=N)n4C)ccc1Cl
List by increasing Papp. Answer format: list of labels, ordered as asked.
b, c, a

----------
assay: PAMPA permeability; type: in vitro ADME; details: Table 1
readout.type: Papp (×10⁻⁶ cm/s)

Some entries whose results are on file:
[[record]]
molecule = "Cc1cc(N2CCOCC2)c(C#N)cc1-n1c(=N)n(C)c2cnc3ccc(-c4ccc(Cl)cc4)cc3c21 [Compound 23]"
result_unit = "×10⁻⁶ cm/s"
test_value = 340

[[record]]
molecule = "Cc1ccc(C(F)(F)F)cc1-n1c(=N)n(C)c2cnc3ccc(-c4ccc(Cl)cc4)cc3c21 [Compound 27]"
result_unit = "×10⁻⁶ cm/s"
test_value = 1610

[[record]]
molecule = "Cn1c(=N)n(-c2cccc(CN3CCNCC3)c2)c2c3cc(-c4ccc(Cl)cc4)ccc3ncc21 [Compound 85]"
result_unit = "×10⁻⁶ cm/s"
test_value = 11.2

[[record]]
molecule = "Cc1ccc(C#N)cc1-n1c(=N)n(C)c2cnc3ccc(-c4cccc(C#N)c4)cc3c21 [Compound 25]"
result_unit = "×10⁻⁶ cm/s"
test_value = 1430

[[record]]
molecule = "Cc1ccc(C#N)cc1-n1c(=N)n(C)c2cnc3ccc(-c4ccc(Cl)cn4)cc3c21 [Compound 44]"
result_unit = "×10⁻⁶ cm/s"
test_value = 1560

[[record]]
molecule = "Cc1ccc(Cl)cc1-n1c(=N)n(C)c2cnc3ccc(-c4ccc(Cl)cc4)cc3c21 [Compound 29]"
result_unit = "×10⁻⁶ cm/s"
test_value = 1680


I: Cn1c(=N)n(-c2cccc(C(F)(F)F)c2)c2c3cc(-c4ccc(Cl)cc4)ccc3ncc21 [Compound 26]
II: Cn1c(=N)n(-c2cccc(O)c2)c2c3cc(-c4ccc(Cl)cc4)ccc3ncc21 [Compound 79]
I'm curious whether I or II has the smaller Papp number. Which is it? Let me know the label of the one you choose.
II

----------
experiment: Solubility pH 7.4; format: physicochemical; conditions: aqueous buffer, Table 3
readout.type: solubility (µg/mL)

1: CC(=O)N1CCN(c2ncc(-n3c(=N)n(C)c4cnc5ccc(-c6ccc(Cl)cc6)cc5c43)cn2)CC1
2: COc1ccc(-c2ccc3ncc4c(c3c2)n(-c2cncnc2)c(=N)n4C)cn1
I'm curious whether 1 or 2 has the smaller solubility number. Which is it? Let me know the label of the one you choose.
1

1: Cc1ncncc1-n1c(=N)n(C)c2cnc3ccc(-c4ccc(Cl)c(C(F)(F)F)c4)cc3c21
2: Cn1c(=N)n(-c2ccnc(N)n2)c2c3cc(-c4ccc(Cl)cc4)ccc3ncc21
I'm curious whether 1 or 2 has the smaller solubility number. Which is it? Let me know the label of the one you choose.
2

----------
test: Solubility pH 7.4; format: physicochemical; conditions: aqueous buffer, Table 1
readout.type: solubility

Some entries whose results are on file:
[[record]]
molecule = "Cc1ccc(C#N)cc1-n1c(=N)n(C)c2cnc3ccc(-c4ccc(Cl)c(Cl)c4)cc3c21"
test_value = "< 1 µg/mL"

[[record]]
molecule = "Cc1cc(NCCN(C)C)c(C#N)cc1-n1c(=N)n(C)c2cnc3ccc(-c4ccc(Cl)cc4)cc3c21"
test_value = "> 50 µg/mL"


// solubility lookup, key: Cc1cc(N2CCNC(C)C2)c(C#N)cc1-n1c(=N)n(C)c2cnc3ccc(-c4ccc(Cl)cc4)cc3c21 (stereo not shown)
1.9 µg/mL

// solubility lookup, key: Cn1c(=N)n(-c2ccccc2O)c2c3cc(-c4ccc(Cl)cc4)ccc3ncc21
< 1 µg/mL

// solubility lookup, key: Cc1cc(N2CC(C)OC(C)C2)c(C#N)cc1-n1c(=N)n(C)c2cnc3ccc(-c4ccc(Cl)cc4)cc3c21 (stereo not shown)
< 1 µg/mL

// solubility lookup, key: Cn1c(=N)n(-c2ccccc2)c2c3cc(-c4ccc(Cl)cc4)ccc3ncc21
5.7 µg/mL

// solubility lookup, key: Cc1ccc(C#N)cc1-n1c(=N)n(C)c2cnc3ccc(-c4ccc5[nH]ncc5c4)cc3c21
> 42 µg/mL
